Reference for the values: paper PMC3351444

target: human CMKLR1 (Homo sapiens); construct: host or cells: HEK293A (Invitrogen), stably expressing human Gα15; assay: Ca2+ mobilization (CellLux imaging) agonist assay in HEK293A cells expressing CMKLR1 and Gα15; assay type: cell-based; conditions: Ca2+ mobilization, CMKLR1; decimal comma
Sequence (Q99788 whole entry): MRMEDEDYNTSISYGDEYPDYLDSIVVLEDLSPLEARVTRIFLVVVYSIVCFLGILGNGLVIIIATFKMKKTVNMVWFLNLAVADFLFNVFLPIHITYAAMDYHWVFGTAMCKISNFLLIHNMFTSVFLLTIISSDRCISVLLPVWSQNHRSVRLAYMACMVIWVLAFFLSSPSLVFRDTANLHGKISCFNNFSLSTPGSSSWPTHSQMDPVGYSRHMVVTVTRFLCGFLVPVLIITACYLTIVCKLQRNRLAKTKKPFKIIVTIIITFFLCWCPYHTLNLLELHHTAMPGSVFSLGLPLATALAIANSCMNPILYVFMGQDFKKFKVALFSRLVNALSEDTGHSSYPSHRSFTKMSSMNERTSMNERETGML
Ends that are not written are not given here.
Recorded max response, one value per entry.

Sample records with max response:
{"columns": ["SUBSTANCE", "SYSTEM UNDER TEST", "max response"],
 "data": [
  ["FLPGQYAFS-OH [compound 34]", "human CMKLR1 (Homo sapiens)", "0,68 DF/F0"],
  ["YLPGQFAFL-OH [compound 39]", "human CMKLR1 (Homo sapiens)", "1,01 DF/F0"],
  ["YFPGQWAWS-NH2 [compound 9]", "human CMKLR1 (Homo sapiens)", "1,61 DF/F0"]
]}

Result for YFPGQFAFQ-OH [compound 50] , tested on human CMKLR1 (Homo sapiens), max response: 1,04 DF/F0

Result for YLPGQYAFL-OH [compound 38] , tested on human CMKLR1 (Homo sapiens), max response: 1,05 DF/F0

Result for FLPGQPYFL-OH [compound 65] , tested on human CMKLR1 (Homo sapiens), max response: 0,91 DF/F0
